Molecular target: fibroblast activation protein (FAP; rhFAP, SLIN-tagged hFAP) (Homo sapiens, UniProt Q12884)
Sequence (Q12884 35-760): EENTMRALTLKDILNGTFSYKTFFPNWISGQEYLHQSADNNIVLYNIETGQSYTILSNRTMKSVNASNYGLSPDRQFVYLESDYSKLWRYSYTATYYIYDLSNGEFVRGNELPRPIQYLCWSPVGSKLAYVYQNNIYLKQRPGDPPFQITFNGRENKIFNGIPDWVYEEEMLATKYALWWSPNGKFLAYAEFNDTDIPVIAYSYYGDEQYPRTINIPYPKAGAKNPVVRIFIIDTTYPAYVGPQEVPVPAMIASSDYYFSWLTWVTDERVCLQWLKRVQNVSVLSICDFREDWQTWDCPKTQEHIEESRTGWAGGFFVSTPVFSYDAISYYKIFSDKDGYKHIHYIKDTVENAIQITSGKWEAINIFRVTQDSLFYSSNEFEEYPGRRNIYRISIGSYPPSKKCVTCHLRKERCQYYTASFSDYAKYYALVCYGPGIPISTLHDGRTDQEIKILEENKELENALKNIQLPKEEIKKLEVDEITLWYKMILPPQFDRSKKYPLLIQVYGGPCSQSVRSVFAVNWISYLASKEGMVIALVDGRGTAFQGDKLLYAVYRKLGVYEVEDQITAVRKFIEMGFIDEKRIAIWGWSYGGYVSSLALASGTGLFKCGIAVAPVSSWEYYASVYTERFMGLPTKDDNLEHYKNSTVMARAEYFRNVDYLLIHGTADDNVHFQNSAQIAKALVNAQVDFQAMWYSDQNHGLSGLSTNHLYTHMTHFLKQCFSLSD
Test: biochemical
Where a name gives a salt, the structure may show the parent alone.
ENDPOINT NAME: Ki (µM)
Your answer is read as µM, so omit the unit and give the number.

Q: Sample COc1cc(C(=O)NS(=O)(=O)c2ccccc2C)ccc1Cc1cn(C)c2ccc(NC(=O)OC3CCCC3)cc12 — what was its Ki?
Ans: 13.4

Q: Next compound up: CN(C)c1ccc2nc3ccc(=[N+](C)C)cc-3sc2c1 [Methylene blue (trihydrate)]
Ans: 19

Q: Do the same for O=NN(CCCl)C(=O)NCCCl please
Ans: 17.1

Q: Repeat for the following compound: CO/N=C(\C(=O)N[C@@H]1C(=O)N2C(C(=O)O)=C(CSc3nnnn3C)CS[C@H]12)c1csc(N)n1 [Cefmenoxime (hydrochloride)]
Ans: 25.1

Q: And for CC1(C)S[C@@H]2[C@H](NC(=O)C(C(=O)Oc3ccc4c(c3)CCC4)c3ccccc3)C(=O)N2[C@H]1C(=O)O (some centres unmarked) [Carindacillin (sodium)] ?
Ans: 14.5

Q: Another compound to look at: CO/N=C(\C(=O)N[C@@H]1C(=O)N2C(C(=O)O)=C(CSC(=O)c3ccco3)CS[C@H]12)c1csc(N)n1 [Ceftiofur (sodium)]
Ans: 23

Q: Same question, CCCC[C@H](NC(C)=O)C(=O)N[C@H]1CC(=O)NCCCC[C@@H](C(=O)O)NC(=O)[C@H](Cc2c[nH]c3ccccc23)NC(=O)[C@H](CCCN=C(N)N)NC(=O)[C@@H](Cc2ccccc2)NC(=O)[C@H](Cc2cnc[nH]2)NC1=O [Bremelanotide (Acetate)] this time
Ans: 25

Q: # iterate: CO[C@H]1/C=C/O[C@@]2(C)Oc3c(C)c(O)c4c(O)c(c(/C=N/N5CCN(C6CCCC6)CC5)c(O)c4c3C2=O)NC(=O)/C(C)=C\C=C\[C@H](C)[C@H](O)[C@@H](C)[C@@H](O)[C@@H](C)[C@H](OC(C)=O)[C@@H]1C
Ans: 11.9

Q: Entry COc1ccc(C(=O)N2CCCC2=O)cc1 please
Ans: 40.4

Q: // next record NC(=O)c1cc[n+](CC2=C(C(=O)O)N3C(=O)[C@@H](NC(=O)[C@@H](c4ccccc4)S(=O)(=O)[O-])[C@H]3SC2)cc1 [Cefsulodin (sodium)]
Ans: 41.4

Q: Here is the next compound: COCC1=C(C(=O)OC(C)OC(=O)OC(C)C)N2C(=O)[C@@H](NC(=O)/C(=N\OC)c3csc(N)n3)[C@H]2SC1 (some centres unmarked)
Ans: 34.6

Q: Another compound: CC(C)C[C@H](NC(=O)CNC(=O)c1cc(Cl)ccc1Cl)B1OC(=O)C(CC(=O)O)(CC(=O)O)O1 [Ixazomib citrate]
Ans: 25.1

Q: What do we get for Cn1c(CCCC(=O)O)nc2cc(N(CCCl)CCCl)ccc21 ?
Ans: 25

Q: What do you get for NCc1ccccc1CC(=O)N[C@@H]1C(=O)N2C(C(=O)O)=C(CSc3nnnn3CC(=O)O)CS[C@H]12 [Ceforanide] ?
Ans: 10.7
